Listing: growth of selected compounds
Tested on: SF-295 CNS
Assay: NCI-60 one-dose screen, 48 h (100 = growth as untreated, 0 = no growth, -100 = all killed)
Details: 10 µM
Protocol: Cells are grown in 96 well plates and exposed to the test compound for 48 hours. Compounds are tested at a single concentration, which is 10^-5 M for most compounds. The reported endpoint is percent growth (GI% or GIPRCNT), where numbers from 0 - 100% represent growth inhibition, and numbers from -100% - 0 represent cell death. For example, a value of 40 represents 60% growth inhibition. A value of 0 means no net growth occurred over the course of the experiment. […]
About 83,000 compounds went through this panel and 20% of them were active in at least one assay; those are over-represented in the sample as a whole. The source made the active and inactive calls. How the source made its calls: active means growth percent below 10; inactive means the rest.

The examples below pair each entry with its known result.
CCc1ccccc1-n1c(N)c(C#N)c(-c2ccc(OC)c(OC)c2)c(C#N)c1=O: 101% (inactive)
CCCCCCCCCCCCCCCc1ccc(Cl)c(O)c1Cl (tested in a mixture with another compound): 109% (inactive)
CNC(=O)c1cc(Oc2ccc(CC(=O)Nc3cc(C(C)(C)C)nn3C)cc2)ccn1: 37.1% (inactive)

Query: What growth appears in the records for this compound with SF-295 CNS? Cc1[nH]c(-c2nc3ccccc3[nH]2)c(C)c1C(=O)NC(C)C1CCCCC1 (configuration not stated)
Reply: 101% (inactive)

Query: Let us now turn to CC#C[C@]1(O)CC[C@H]2[C@@H]3CCC4=CC(=O)CCC4=C3[C@@H](c3ccc4c(c3)OCO4)C[C@@]21C
Reply: 58.5% (inactive)

Query: Let us now turn to CC1(C)OB(c2ccc(Cn3cc(F)c(=O)[nH]c3=O)cc2)OC1(C)C
Reply: 102% (inactive)

Query: Let us now turn to O=C(O)c1sccc1O
Reply: 76.6% (inactive)

# credit: PubChem BioAssay (NCI)
